The reported measurements were obtained from patent US20260167721A1.

# test-target: T1, recombinant human CD3 epsilon/delta heterodimer (human, UniProt P07766 23-126; P04234 22-105)
# T1 construct: Recombinant protein in solution (200-50 nM) in the Octet assay; also called hCD3 E/D; human CD3E/D
# T1 sequence (P07766 23-126, stated change not applied, chain 1 of 2): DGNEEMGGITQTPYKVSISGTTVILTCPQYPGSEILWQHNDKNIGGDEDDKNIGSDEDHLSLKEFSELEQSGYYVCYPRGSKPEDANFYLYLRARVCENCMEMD
# T1 sequence (P04234 22-105, stated change not applied, chain 2 of 2): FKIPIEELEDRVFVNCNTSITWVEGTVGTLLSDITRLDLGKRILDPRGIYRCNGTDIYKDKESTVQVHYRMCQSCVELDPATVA
# assay-name: Octet BLI, mAb on FAB2G sensor, hCD3 E/D 200-50 nM; R^2 0.99
parameter-measured: pKd
Would you please state pKd, meaning minus log10 of the concentration in mol/L, as a bare number?

The cases that follow already have their pKd on record.
ABL-CD3-25 (antibody, V domains shown, Chimeric hybridoma mAb: human V, CH1, upper hinge; mouse middle hinge, CH2, CH3) VH: EVHLVESGGGLVKPGGSLRLSCAASGFTFSSYSMNWVRQAPGKGLEWVSSISSSSTYIYYADSVKGRFTISRDNAKNSLYLQMNSLRAEDTAVYYCAREPRTLGMDYWGQGILVTVSS VL: NFMLTQPHSVSESPGKTVTISCTRSSGSIASNYVQWYQQRPGSSPTTVIYEDNHRPSGVPDRFSGSIDSSSNSASLTISGLKTEDEADYFCQSFDSSNRVFGGGTKLTVL    8.07
ABL-CD3-28 (antibody, V domains shown, Chimeric hybridoma mAb: human V, CH1, upper hinge; mouse middle hinge, CH2, CH3) VH: QVQLQQSGPGLVKPSQTLSLTCAISGDSVSSNSVAWNWIRQSPSRGLEWLGRTYYRSKWYNECAGSVKSRITINPDTSKNQFSLQLNSVTPEDTAIYYCARERKWELFLDYWGQGTLVTVSS VL: NFMLTQPHSVSESPGKTVTISCTRSSGSIASNYVQWYQQRPGSSPTTVIYEDNQRPSGVPDRFSGSIDSSSNSASLTISGLKTEDEADYYCQSFDSSNVVFGGGTKLTVL    8.10

Which pKd value is on record for ABL-CD3-50 (antibody, V domains shown, Chimeric hybridoma mAb: human V, CH1, upper hinge; mouse middle hinge, CH2, CH3) VH: QVQLQQSGPGLVKPSQTLSLTCAISGDSVSSNSVAWNWIRQSPSRGLEWLGRTYSRSKWYNDYAVSVKSRITINPDTSKNQFSLELNSVTPEDTAVYYCARERKWELFLDYWGQGTLVTVSS VL: NFMLTQPHSVSESPGKTVTISCTRSSGSIASNYVQWYQQRPGISPTTVIYEDNQRPSGVPDRFSGSIDSSSNSASLTISGLKTEDEADYYCQSFDTSNVVFGGGTKLTVL ? 7.68

For ABL-CD3-53 (antibody, V domains shown, Chimeric hybridoma mAb: human V, CH1, upper hinge; mouse middle hinge, CH2, CH3) VH: EVQLVESGGGLVKPGGSLRLSCAASGFTFSSYTMNWVRQAPGKGLEWVSSITTSSSYIYYADSVKGRFTISRDNAKNSLYLQMNSLRAEDTAVYYCARVTFDAFDIWGQGTMVTVSS VL: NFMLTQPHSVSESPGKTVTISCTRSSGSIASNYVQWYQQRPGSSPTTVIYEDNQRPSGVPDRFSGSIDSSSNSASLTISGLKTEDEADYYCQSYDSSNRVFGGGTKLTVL then? 6.84

For ABL-CD3-46 (antibody, V domains shown, Chimeric hybridoma mAb: human V, CH1, upper hinge; mouse middle hinge, CH2, CH3) VH: EVQLVESGGGLVKPGGSLRLSCSASGFTFSTYTMNWVRQAPGKGLDWVSSISKSSTYIYYADSVKGRFTISRDNAKNSLYLQMNSLRAEDTAVYYCARERRTLAFDIWGQGTMVTVSS VL: NFMLTQPHSVSESPGKTVTISCTRSSGSIASNYVQWYQQRPGSSPTTVIYEDNQRPSGVPDRFSGSIDSSSNSASLTISGLKTEDEADYYCQCYDRSNRVFGGGTKLTVL then? 8.02
